experiment: Tmax in human infected with HCV genotype 1 at 160 mg administered once daily for 2 days; format: ADME; settings: in vivo

>  <smiles>
COc1c(/C=C/c2ccc(NS(C)(=O)=O)cc2)cc(-n2ccc(=O)[nH]c2=O)cc1C(C)(C)C

>  <Tmax>
3.6 h

$$$$

* * *

assay: Aqueous solubility of the compound at pH 7.2; format: physicochemical; conditions: buffer, read-out: solubility
# Lookup of reported solubility keyed by entry
reported_endpoint: solubility (µM)

>  <smiles>
COc1c(/C=C(\C)c2ccc([N+](=O)[O-])cc2)cc(N2CCC(=O)NC2=O)cc1C(C)(C)C

>  <operator_symbol>
<

>  <recorded_result>
2

$$$$
>  <smiles>
COc1c(CNc2ccc(NS(C)(=O)=O)cc2)cc(N2CCC(=O)NC2=O)cc1C(C)(C)C

>  <operator_symbol>
=

>  <recorded_result>
90.8

$$$$
>  <smiles>
COc1c(C(=O)N(C)c2ccc(NS(C)(=O)=O)cc2)cc(N2CCC(=O)NC2=O)cc1C(C)(C)C

>  <operator_symbol>
>

>  <recorded_result>
50

$$$$
>  <smiles>
COc1c(COc2ccc(NS(C)(=O)=O)cc2)cc(N2CCC(=O)NC2=O)cc1C(C)(C)C

>  <operator_symbol>
=

>  <recorded_result>
3

$$$$

* * *

# Lookup of reported IC50 keyed by entry
experiment: Inhibition of HCV genotype 1b BK NS5B RNA dependent RNA polymerase assessed as reduction in [3H]UTP incorporation in to RNA preincubated for 15 mins followed by [3H]UTP addition measured after 3 hrs by microbeta scintillation counting method; set-up: species or system Hepatitis C virus (isolate BK)

>  <compound>
COc1c(CCc2ccc(NS(C)(=O)=O)cc2)cc(N2CCC(=O)NC2=O)cc1C(C)(C)C

>  <IC50>
0.0403 µM

$$$$
>  <compound>
COc1c(C(=O)N(C)c2ccc(NS(C)(=O)=O)cc2)cc(N2CCC(=O)NC2=O)cc1C(C)(C)C

>  <IC50>
0.273 µM

$$$$
>  <compound>
COc1c(C2CC2c2ccc(NS(C)(=O)=O)cc2)cc(N2CCC(=O)NC2=O)cc1C(C)(C)C (stereo not given)

>  <IC50>
0.514 µM

$$$$
>  <compound>
COc1c(C#Cc2ccc(NS(C)(=O)=O)cc2)cc(N2CCC(=O)NC2=O)cc1C(C)(C)C

>  <IC50>
0.003 µM

$$$$
>  <compound>
COc1c(C(=O)Nc2ccc(NS(C)(=O)=O)cc2)cc(N2CCC(=O)NC2=O)cc1C(C)(C)C

>  <IC50>
0.0217 µM

$$$$

* * *

assay: Terminal half life in human at 320 mg administered as single dose; format: ADME; conditions: in vivo, read-out: beta t1/2 (converted)
reported_endpoint: half-life (min)

>  <compound>
COc1c(/C=C/c2ccc(NS(C)(=O)=O)cc2)cc(-n2ccc(=O)[nH]c2=O)cc1C(C)(C)C [ABT-072]

>  <unit_label>
min

>  <recorded_result>
421

$$$$

* * *

test: Drug level in dog liver at 2.5 mg/kg, po after 24 hrs; assay type: ADME, organism-based, Canis lupus familiaris; settings: read-out: Drug uptake
reported_endpoint: concentration at 24 h

>  <smiles>
COc1c(/C=C/c2ccc(NS(C)(=O)=O)cc2)cc(-n2ccc(=O)[nH]c2=O)cc1C(C)(C)C

>  <reported_endpoint>
concentration at 24 h

>  <recorded_result>
> 1000 ng/g

$$$$

* * *

assay: Stability in rat liver microsomes assessed as parent compound remaining after 30 mins; assay type: ADME, microsome; conditions: read-out: Stability

>  <compound>
COc1c(CNc2ccc(NS(C)(=O)=O)cc2)cc(N2CCC(=O)NC2=O)cc1C(C)(C)C

>  <unit_label>
%

>  <operator_symbol>
=

>  <remaining at 0.5 h>
58

$$$$
>  <compound>
COc1c(C(=O)N(C)c2ccc(NS(C)(=O)=O)cc2)cc(N2CCC(=O)NC2=O)cc1C(C)(C)C

>  <unit_label>
%

>  <operator_symbol>
=

>  <remaining at 0.5 h>
83

$$$$
>  <compound>
COc1c(/C=C(\C)c2ccc([N+](=O)[O-])cc2)cc(N2CCC(=O)NC2=O)cc1C(C)(C)C

>  <unit_label>
%

>  <operator_symbol>
=

>  <remaining at 0.5 h>
36.5

$$$$
>  <compound>
COc1c(/C=C/c2ccc(NS(C)(=O)=O)cc2)cc(N2CCC(=O)NC2=O)cc1C(C)(C)C

>  <unit_label>
%

>  <operator_symbol>
=

>  <remaining at 0.5 h>
33.5

$$$$
>  <compound>
COc1c(C2CC2c2ccc(NS(C)(=O)=O)cc2)cc(N2CCC(=O)NC2=O)cc1C(C)(C)C (stereo not given)

>  <unit_label>
%

>  <operator_symbol>
=

>  <remaining at 0.5 h>
32.3

$$$$
>  <compound>
COc1c(C(=O)Nc2ccc(NS(C)(=O)=O)cc2)cc(N2CCC(=O)NC2=O)cc1C(C)(C)C

>  <unit_label>
%

>  <operator_symbol>
>

>  <remaining at 0.5 h>
85

$$$$
>  <compound>
COc1c(COc2ccc(NS(C)(=O)=O)cc2)cc(N2CCC(=O)NC2=O)cc1C(C)(C)C

>  <unit_label>
%

>  <operator_symbol>
=

>  <remaining at 0.5 h>
80

$$$$
>  <compound>
COc1c(CCc2ccc(NS(C)(=O)=O)cc2)cc(N2CCC(=O)NC2=O)cc1C(C)(C)C

>  <unit_label>
%

>  <operator_symbol>
=

>  <remaining at 0.5 h>
1.6

$$$$
>  <compound>
COc1c(C#Cc2ccc(NS(C)(=O)=O)cc2)cc(N2CCC(=O)NC2=O)cc1C(C)(C)C

>  <unit_label>
%

>  <operator_symbol>
=

>  <remaining at 0.5 h>
50

$$$$
>  <compound>
COc1c(NC(=O)c2ccc(NS(C)(=O)=O)cc2)cc(N2CCC(=O)NC2=O)cc1C(C)(C)C

>  <unit_label>
%

>  <operator_symbol>
>

>  <remaining at 0.5 h>
85

$$$$

* * *

assay: Terminal half life in human at 80 mg administered as single dose; assay type: ADME; conditions: in vivo, read-out: beta t1/2 (converted)

>  <compound>
COc1c(/C=C/c2ccc(NS(C)(=O)=O)cc2)cc(-n2ccc(=O)[nH]c2=O)cc1C(C)(C)C [ABT-072]

>  <half-life [h]>
8.17

$$$$

* * *

test system: Hepatitis C virus; assay: Antiviral activity against HCV genotype 1a H77 infected in human HuH7 cells harboring HCV subgenomic bicistronic replicon after 3 days by luciferase reporter gene assay; assay type: functional, cell-based, Hepacivirus hominis; settings: genotype 1a H77, Huh-7, 72 h

>  <compound>
COc1c(/C=C/c2ccc(NS(C)(=O)=O)cc2)cc(-n2cc(F)c(=O)[nH]c2=O)cc1C(C)(C)C

>  <tested_system>
Hepatitis C virus

>  <EC50 (nM)>
89

$$$$
>  <compound>
COc1c(/C=C/c2ccc(NS(C)(=O)=O)cc2)cc(-n2ccc(=O)[nH]c2=O)cc1C(C)(C)C [ABT-072]

>  <tested_system>
Hepatitis C virus

>  <EC50 (nM)>
1.1

$$$$
>  <compound>
COc1c(/C=C/c2ccc(NS(C)(=O)=O)cc2)cc(N2CCC(=O)NC2=O)cc1C(C)(C)C

>  <tested_system>
Hepatitis C virus

>  <EC50 (nM)>
3.1

$$$$
>  <compound>
COc1c(/C=C/c2ccc(NS(C)(=O)=O)c(F)c2)cc(-n2ccc(=O)[nH]c2=O)cc1C(C)(C)C

>  <tested_system>
Hepatitis C virus

>  <EC50 (nM)>
13.8

$$$$

* * *

experiment: Tmax in human at 160 mg administered as single dose; assay type: ADME; conditions: in vivo
reported_endpoint: Tmax

>  <smiles>
COc1c(/C=C/c2ccc(NS(C)(=O)=O)cc2)cc(-n2ccc(=O)[nH]c2=O)cc1C(C)(C)C

>  <reported_endpoint>
Tmax

>  <recorded_result>
6.8 h

$$$$

* * *

assay: Half life in dog at 30 mg/kg, po; assay type: ADME, organism-based, Canis lupus familiaris; details: in vivo
reported_endpoint: half-life (min)

>  <compound>
COc1c(/C=C/c2ccc(NS(C)(=O)=O)cc2)cc(-n2ccc(=O)[nH]c2=O)cc1C(C)(C)C [ABT-072]

>  <reported_endpoint>
half-life

>  <recorded_result>
576

$$$$

* * *

experiment: Half life in dog at 2.5 mg/kg, po; type: ADME, organism-based, Canis lupus familiaris; conditions: in vivo

>  <smiles>
COc1c(/C=C/c2ccc(NS(C)(=O)=O)cc2)cc(-n2ccc(=O)[nH]c2=O)cc1C(C)(C)C

>  <half-life, h>
5.4

$$$$

* * *

test system: Rattus norvegicus; assay: AUC in Sprague-Dawley rat at 5 mg/kg, iv; type: ADME, organism-based; conditions: in vivo

>  <smiles>
COc1c(/C=C/c2ccc(NS(C)(=O)=O)cc2)cc(-n2ccc(=O)[nH]c2=O)cc1C(C)(C)C

>  <AUC / µg·h/mL>
5.73

$$$$
